The following are reported pIC50 results, target or system Glycogen synthase kinase-3 beta (Homo sapiens, UniProt P49841).
pIC50: −log10 of the molar value.
readout.type: pIC50

Take a look at these entries with their results.
C[C@H]1COc2c(NCCCn3cccn3)c(F)c(N)c3c(=O)c(C(=O)O)cn1c23
7.80
C[C@H]1COc2c(NCCNc3ccccn3)c(F)c(N)c3c(=O)c(C#N)cn1c23
9.24

a = C[C@H]1COc2c(NCCCn3cccn3)c(F)c(N)c3c(=O)c(C#N)cn1c23
b = C[C@H]1COc2c(NCCCc3ccccc3)c(F)c(N)c3c(=O)c(C(=O)O)cn1c23
Sort a and b by pIC50 descending and give the first. Identify your selection by its label.
a
